System: M14
METHOD_DESCRIPTION: Cytotoxicity against human M14 cells after 48 hrs by SRB assay
Format: functional
RUN_CONDITIONS: M14, 48 h, read-out: LC50 (the source's name)
MEASURED_PARAMETER: CC50

MOLECULE: COc1cc(C2CC(c3cccc(Nc4ccnc5cc(Cl)ccc45)c3)=NN2C=O)cc(OC)c1OC (stereo unspecified)
RESULT: 57.5 µM
--
MOLECULE: CC(=O)N1N=C(c2ccc(Nc3ccnc4cc(Cl)ccc34)cc2)CC1c1ccc(Cl)cc1 (stereo unspecified)
RESULT: > 100 µM
--
MOLECULE: O=CN1N=C(c2cccc(Nc3ccnc4cc(Cl)ccc34)c2)CC1c1ccc(Cl)cc1 (stereo unspecified)
RESULT: > 100 µM
--
MOLECULE: COc1ccc(C2CC(c3cccc(Nc4ccnc5cc(Cl)ccc45)c3)=NN2C=O)cc1 (stereo unspecified)
RESULT: > 100 µM
--
MOLECULE: O=CN1N=C(c2cccc(Nc3ccnc4cc(Cl)ccc34)c2)CC1c1ccccc1 (stereo unspecified)
RESULT: > 100 µM
--
MOLECULE: O=CN1N=C(c2ccc(Nc3ccnc4cc(Cl)ccc34)cc2)CC1c1ccccc1 (stereo unspecified)
RESULT: > 100 µM
--
MOLECULE: COc1cccc2c1C(=O)c1c(O)c3c(c(O)c1C2=O)C[C@@](O)(C(=O)CO)C[C@@H]3O[C@H]1C[C@H](N)[C@H](O)[C@H](C)O1 [DOXORUBICIN]
RESULT: 4.05 µM
--
MOLECULE: Cc1ccc(C2CC(c3ccc(Nc4ccnc5cc(Cl)ccc45)cc3)=NN2C=O)cc1 (stereo unspecified)
RESULT: > 100 µM
--
MOLECULE: O=CN1N=C(c2ccc(Nc3ccnc4cc(Cl)ccc34)cc2)CC1c1ccc(Cl)cc1 (stereo unspecified)
RESULT: > 100 µM
--
MOLECULE: COc1ccc(C2CC(c3ccc(Nc4ccnc5cc(Cl)ccc45)cc3)=NN2C=O)cc1 (stereo unspecified)
RESULT: > 100 µM
--
MOLECULE: COc1cc(C2CC(c3ccc(Nc4ccnc5cc(Cl)ccc45)cc3)=NN2C=O)cc(OC)c1OC (stereo unspecified)
RESULT: 48.3 µM
